Data provenance: patent US5576296A

- target_system: galanin receptor
- procedure_summary: Displacement of 125I-galanin, membranes from rat hypothalamus
- Format: binding
- protocol_conditions: displacement experiments in rat hypothalamus, 125I-galanin
pIC50: −log10 of the molar value. Ends that are not written are not given here.
pIC50 below 9 gives False; pIC50 at or above it gives True.

Answered cases to consult:
>>> discrete_label("GWTLNSAGYLLGPPPYGGFL-NH2 [M 36]")
"False"
>>> discrete_label("GWTLNSAGYLLGPPPLFGGY-NH2 [M36,A]")
"False"
>>> discrete_label("GWTLNSAGYLLGPPPQQFFGLM-NH2 [M37, Galanin(1-12)-ProProPro-SP(5-11) amide]")
"False"

In: Can GWTLNSAGYLLGPPPALALA-NH2 [M 40] be said to have pIC50 at or above 9?
Out: False

In: Check this substance for pIC50 at or above 9: GWTLNSAGYLLGPALALALA-NH2 [M 38]
Out: True
